Tested on: LOC_OS04G38480-cb003
Sequence (as listed by the source): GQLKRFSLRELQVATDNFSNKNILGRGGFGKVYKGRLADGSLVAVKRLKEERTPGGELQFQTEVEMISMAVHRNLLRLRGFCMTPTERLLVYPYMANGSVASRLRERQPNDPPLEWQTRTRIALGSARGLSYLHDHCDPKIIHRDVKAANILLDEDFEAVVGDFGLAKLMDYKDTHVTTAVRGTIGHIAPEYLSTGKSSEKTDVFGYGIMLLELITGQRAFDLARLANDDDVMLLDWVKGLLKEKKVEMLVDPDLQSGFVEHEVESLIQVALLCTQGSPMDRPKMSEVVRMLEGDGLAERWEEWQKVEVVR
test_method_notes: thermal shift delta Tm vs DMSO control; higher = stronger stabilization (binding);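 also: purified Escherichia coli-expressed rice kinase domain construct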
condition_info: 12.5 µM; protein concentration 2 µM
Where a name gives a salt, the structure may show the parent alone.
measurement_kind: thermal shift delta Tm (°C)
Give just the number in °C; leave the unit off.

[Q] Item `COc1ccc(Cl)c(Nc2nc3ccccc3nc2NS(=O)(=O)c2cccc(NC(=O)C(C)(C)N)c2)c1` has what recorded thermal shift delta Tm?
[A] 2.92

[Q] How about this molecule: `CNc1nc(-c2ccc3c(N)n[nH]c3c2)cc(N2C[C@@H](C(=O)NC3CCCCC3)CC[C@H]2C)n1`
[A] 1.14

[Q] How about this molecule: O=C(Nc1cccc(Cl)c1)Nc1ncc(CCNc2ncnc3ccsc23)s1 [SNS-314 Mesylate]
[A] 2.48

[Q] How about this molecule: `C=CC(=O)Nc1ccc2ncnc(Nc3cccc(Br)c3)c2c1`
[A] 0.18

[Q] How about this molecule: `Cc1ccc(C(=O)Nc2ccc(Oc3cc4cnn(C)c4cc3-c3cn[nH]c3)c(F)c2)c(=O)n1-c1ccc(F)cc1`
[A] 3.19

====

Tested on: LOC_OS01G48390-cb002
test_method_notes: thermal shift delta Tm vs DMSO control; higher = stronger stabilization (binding)
condition_info: 12.5 µM; protein concentration 2 µM
Exercise: for every item that follows, state its recorded thermal shift delta Tm.
Give just the number in °C; leave the unit off.

[Q] Item COc1nccc(-c2c(-c3ccc(F)cc3)ncn2C2CCC(O)CC2)n1 (stereo unspecified) has what recorded thermal shift delta Tm?
[A] 0.16

[Q] How about this molecule: `Cc1c(C(=O)N2CCOc3ccc(-c4ccc(N)nc4)cc3C2)ccc(S(C)(=O)=O)c1F`
[A] 0.13

[Q] How about this molecule: `CCCNC(=O)c1cn2ncnc(Nc3cc(C(=O)NC4CC4)ccc3C)c2c1C`
[A] -0.01

[Q] How about this molecule: `OCCn1cc(-c2ccc3c(c2)CC/C3=N\O)c(-c2ccncc2)n1`
[A] 0.73

[Q] How about this molecule: `NC[C@@](O)(c1ccc(Cl)cc1)c1ccc(-c2cn[nH]c2)cc1`
[A] 1.06

[Q] How about this molecule: `COc1cc(Nc2ncc(F)c(Nc3ccc4c(n3)NC(=O)C(C)(C)O4)n2)cc(OC)c1OC`
[A] 0.28

[Q] How about this molecule: `COc1ccc(CCNCc2ccc(OCc3ccc(Cl)nc3)c(OC)c2)cc1OC`
[A] 0.52

[Q] How about this molecule: `COc1cc2ccc(=O)oc2cc1O`
[A] -0.08

[Q] How about this molecule: `O=C1NCCc2[nH]c(-c3ccncc3)cc21`
[A] 0.48

[Q] How about this molecule: CCN(CC)CCCC(C)Nc1nc(C)cc(Nc2ccc3nc(C)cc(N)c3c2)n1 (stereo unspecified)
[A] 1.07

[Q] How about this molecule: `CNC(=O)c1ccccc1Sc1ccc2c(/C=C/c3ccccn3)n[nH]c2c1`
[A] 0.12

[Q] How about this molecule: O=C(O)c1cc(O)c2c(c1)[C@@H]([C@H]1c3cc(C(=O)O)cc(O)c3C(=O)c3c(O[C@@H]4O[C@H](CO)[C@@H](O)[C@H](O)[C@H]4O)cccc31)c1cccc(O[C@@H]3O[C@H](CO)[C@@H](O)[C@H](O)[C@H]3O)c1C2=O [Sennoside B]
[A] 4.78

[Q] How about this molecule: `Cc1cc([C@@H](C)Nc2ccccc2C(=O)O)c2nc(N3CCOCC3)cc(=O)n2c1`
[A] 0.29

[Q] How about this molecule: `CCCCCCCCCCCCCCCCn1cc[n+](Cc2ccccc2)c1C`
[A] -5.85

[Q] How about this molecule: `CC(C)Oc1ccc(-c2nn([C@@H](C)c3oc4ccc(F)cc4c(=O)c3-c3cccc(F)c3)c3ncnc(N)c23)cc1F`
[A] 1.45

[Q] How about this molecule: `Cc1ccccc1CN1C2=NCCN2C(=O)C2=C1CCN(Cc1ccccc1)C2`
[A] 0.44

====

System: LOC_OS07G07230-cb001
test_method_notes: thermal shift delta Tm vs DMSO control; higher = stronger stabilization (binding)
condition_info: 12.5 µM; protein concentration 2 µM
Structures can show the parent of a compound that is named as a salt.
measurement_kind: thermal shift delta Tm

[Q] Item `Cc1cc(Nc2ncc(Cl)c(Nc3ccccc3S(=O)(=O)C(C)C)n2)c(OC(C)C)cc1C1CCNCC1` has what recorded thermal shift delta Tm?
[A] 0.14 °C

[Q] How about this compound: `C=CC(=O)Nc1ccc(CN2C(=O)N(c3cc(OC)cc(OC)c3)Cc3cnc(Nc4ccc(N5CCN(C)CC5)cc4)nc32)cc1`
[A] 1.29 °C

[Q] How about this compound: `CC(C)(C#N)c1ccc(N2C(=O)OCc3cnc4ccc(-c5cnc6ccccc6c5)cc4c32)cc1`
[A] 0.63 °C

[Q] How about this compound: O=C(Nc1cccc(Cl)c1)Nc1ncc(CCNc2ncnc3ccsc23)s1 [SNS-314 Mesylate]
[A] -0.06 °C

[Q] How about this compound: `CC(C)(C)c1nc(-c2cccc(NS(=O)(=O)c3c(F)cccc3F)c2F)c(-c2ccnc(N)n2)s1`
[A] 0.6 °C

[Q] How about this compound: CCOc1cc2ncc(C#N)c(Nc3ccc(F)c(Cl)c3)c2cc1NC(=O)/C=C/CN(C)C [Pelitinib (EKB-569)]
[A] 0.56 °C

[Q] How about this compound: `CCn1c(=O)c(-c2cc[nH]n2)cc2c(C)nc(N)nc21`
[A] 0.61 °C

[Q] How about this compound: `O=C(NOC[C@H](O)CO)c1ccc(F)c(F)c1Nc1ccc(I)cc1F`
[A] 0.26 °C

[Q] How about this compound: `Cc1ccc(Nc2nccc(N(C)c3ccc4c(C)n(C)nc4c3)n2)cc1S(N)(=O)=O`
[A] 0.54 °C

[Q] How about this compound: `CC1(C)OCCn2c1nc1c(N3CCOCC3)nc(-c3cnc(N)nc3)nc12`
[A] 0.43 °C

[Q] How about this compound: `CCN1CCN(Cc2ccc(-c3cc4c(N[C@H](C)c5ccccc5)ncnc4[nH]3)cc2)CC1`
[A] 0.13 °C

[Q] How about this compound: `NC(=O)c1ncn([C@@H]2O[C@H](CO)[C@@H](O)[C@H]2O)c1N`
[A] -0.25 °C

[Q] How about this compound: `C=CC(=O)Nc1cccc(Oc2nc(Nc3ccc(N4CCN(C)CC4)cc3OC)ncc2Cl)c1`
[A] 0.24 °C

[Q] How about this compound: `CC(=O)Nc1nc(C)c(-c2ccc(Cl)c(S(=O)(=O)NCCO)c2)s1`
[A] -0.01 °C

[Q] How about this compound: `CN(C)CCOc1ccc(-c2nc(-c3ccncc3)c(-c3ccc4c(c3)CC/C4=N\O)[nH]2)cc1`
[A] 0.18 °C

[Q] How about this compound: c1cc(-c2cnn3cc(-c4ccc(OCCN5CCCCC5)cc4)cnc23)ccn1 [Dorsomorphin 2HCl]
[A] 1.17 °C

[Q] How about this compound: `Nc1ncnc2n[nH]c(Nc3ccc(F)cc3)c12`
[A] 0.82 °C

[Q] How about this compound: `COc1cc(-c2cc(-c3ccc(N4CCNCC4)cc3)cnc2C)cc(OC)c1OC`
[A] 0.01 °C

[Q] How about this compound: `CNC(=O)c1ccc(-c2cnc3ncc(Cc4ccc5ncccc5c4)n3n2)cc1F`
[A] 0.89 °C

[Q] How about this compound: `Cc1n[nH]c2ncc(C(=O)N3CCC[C@H]3c3ccc(Cl)cc3)cc12`
[A] 0.45 °C

[Q] How about this compound: `FC(F)c1nc2ccccc2n1-c1nc(N2CCOCC2)nc(N2CCOCC2)n1`
[A] 0.3 °C

[Q] How about this compound: `CC[C@@](C)(Nc1ccnc(-c2c[nH]c3ncccc23)n1)C(=O)NCC(F)(F)F`
[A] 0.24 °C

[Q] How about this compound: `Cc1ccc(NC(=O)c2ccc(CN3CCN(C)CC3)cc2)cc1Nc1nc(-c2cccnc2)cs1`
[A] 0.23 °C

[Q] How about this compound: `CC(C)(C)c1nc(-c2ccc(NC(=O)Nc3cccc(C(F)(F)F)c3)c3ccccc23)c2c(N)nccn12`
[A] 0.14 °C

[Q] How about this compound: `N#Cc1c(NC(=O)c2cccc3ccccc23)sc2c1CCCC2`
[A] 0.4 °C

====

Test system: LOC_OS05G16824-cb004
test_method_notes: thermal shift delta Tm vs DMSO control; higher = stronger stabilization (binding)
condition_info: 12.5 µM; protein concentration 2 µM
Where a name gives a salt, the structure may show the parent alone.
Rule: thermal shift delta Tm under 0.1 °C gives N, otherwise Y.

[Q] Is thermal shift delta Tm at least 0.1 °C? Consider `FC(F)(F)c1ccc(CNc2ccc(Cc3c[nH]c4ncc(Cl)cc34)cn2)cn1`
[A] Y

[Q] How about this molecule: `O=C1NCCc2[nH]c(-c3ccncc3)cc21`
[A] N

[Q] How about this molecule: O=C(Nc1nccs1)C(c1cc(F)ccc1O)N1Cc2ccccc2C1=O (configuration not stated)
[A] N

[Q] How about this molecule: `Cc1ccc(Nc2nccc(N(C)c3ccc4c(C)n(C)nc4c3)n2)cc1S(N)(=O)=O`
[A] Y

[Q] How about this molecule: `N[C@@H]1CCCN(c2c(/C=C3\SC(=O)NC3=O)cccc2-c2ccccc2)C1`
[A] N

[Q] How about this molecule: Cc1cc(O)c(-c2ccc([C@@H](C)CN)cc2)c2c1[nH]c(=O)c1sccc12 [OTS514 hydrochloride]
[A] N

[Q] How about this molecule: `Cc1ccc(C(=O)Nc2ccc(Oc3cc4cnn(C)c4cc3-c3cn[nH]c3)c(F)c2)c(=O)n1-c1ccc(F)cc1`
[A] Y

[Q] How about this molecule: `CNC(=O)c1cccc(-c2ccc3c(N4CCOC[C@@H]4C)nc(N4CCOC[C@@H]4C)nc3n2)c1`
[A] N

[Q] How about this molecule: `Cc1cc(Nc2cc(Cl)nc(Oc3ccc([N+](=O)[O-])cc3)n2)n[nH]1`
[A] N

[Q] How about this molecule: `Cc1ccc(CNc2ncnc3ccc(-c4ccc(CO)o4)cc23)o1`
[A] N

[Q] How about this molecule: `CCC(=O)Nc1cccc(Oc2nc(Nc3ccc(N4CCN(C)CC4)cc3OC)ncc2Cl)c1`
[A] N

[Q] How about this molecule: `COC(=O)c1ccc2c(c1)NC(=O)/C2=C(\Nc1ccc(N(C)C(=O)CN2CCN(C)CC2)cc1)c1ccccc1`
[A] Y

[Q] How about this molecule: `N#CCNC(=O)c1ccc(-c2ccnc(Nc3ccc(N4CCOCC4)cc3)n2)cc1`
[A] Y

[Q] How about this molecule: `Cc1ccc(NC(=O)c2cccc(N(C)C)c2)cc1NC(=O)c1ccc(O)cc1`
[A] Y

[Q] How about this molecule: `Cn1c(Nc2ccc(C(F)(F)F)cc2)nc2cc(Oc3ccnc(-c4ncc(C(F)(F)F)[nH]4)c3)ccc21`
[A] Y

[Q] How about this molecule: `Nc1nccc(Oc2ccc3c(C(=O)Nc4cccc(C(F)(F)F)c4)cccc3c2)n1`
[A] N

[Q] How about this molecule: `O=C1NC(=O)/C(=C/c2ccc3nccc(-c4ccncc4)c3c2)S1`
[A] N

Origin of values: the supplement of paper PMC9694430
